Source listed as PubChem BioAssay (NCI).

# Tested on: SF-295 CNS
# Assay Summary: NCI-60 one-dose screen, 48 h
# Condition Details: 10 µM unless noted
This is part of a sample that, as a whole, favours compounds with a hit. Of some 83,000 tested, about 20% had one in any assay. Activity calls are given as the source filed them. The calls were made as follows: active = growth percent below 10; inactive = the rest.
Outcome field: choose from active, inactive

- Compound: "CCOS(=O)(=O)c1ccc([N+](=O)[O-])cc1"
  Target Or System: "SF-295 CNS"
  Assigned Class: "inactive"
- Compound: "Nc1ccc(F)cc1F"
  Target Or System: "SF-295 CNS"
  Assigned Class: "inactive"
- Compound: "Nc1ccc2ccccc2c1-c1c(N)ccc2ccccc12"
  Target Or System: "SF-295 CNS"
  Assigned Class: "inactive"
- Compound: "COc1cccc(N=CNc2cccc(OC)c2)c1"
  Target Or System: "SF-295 CNS"
  Assigned Class: "inactive"
- Compound: "C=CCNC(=S)N/C=C(/C(=O)c1ccccc1)c1ccccc1"
  Target Or System: "SF-295 CNS"
  Assigned Class: "inactive"

Would you mind telling me which call this test gave CC(=O)NC(CCC(=O)c1ccccc1)C(=O)O (centres undefined) ?
inactive

Request: CCCC(OC(C)=O)c1ccc2c(c1)OCO2 (centres undefined)
inactive

Request: O=C(O)c1ccc([N+](=O)[O-])cc1S(=O)(=O)O
inactive

Request: O=C(NCCc1ccccc1)/C(=C\c1ccc(Cl)cc1Cl)NC(=O)c1ccccc1
inactive

Request: CC(C)c1ccc(C(=O)OCCCl)cc1
inactive

Request: CCCCCC(=O)OCCC1CCCCC1
inactive

----------
# System: MOLT-4 leukemia
# Assay Summary: NCI-60 one-dose screen, 48 h (100 = growth as untreated, 0 = no growth, -100 = all killed)
# Condition Details: 10 µM unless noted
This is part of a sample that, as a whole, favours compounds with a hit. Of some 83,000 tested, about 20% had one in any assay. Active and inactive are the calls of the source. How the source made its calls: active means growth percent below 10; inactive means the rest.
Measured Quantity: growth

- Compound: "COC1OC(C(O)C(O)CO)C(O)C(O)C1O (stereo not drawn)"
  growth: "105% (inactive)"
- Compound: "c1ccc(-c2ccc3ccccc3c2)cc1"
  growth: "80.8% (inactive)"
- Compound: "O=C(NC1CCCCC1)c1ccc(Cl)cc1"
  growth: "95.2% (inactive)"
- Compound: "Clc1cccc(Cl)c1CSc1nc2ccccc2n2cccc12"
  growth: "92.9% (inactive)"
- Compound: "CC(=O)NC(O)C(Cl)Cl (stereo not drawn)"
  growth: "104% (inactive)"
- Compound: "CC(C)NC(=O)OCc1c(COC(=O)NC(C)C)c(-c2ccc(Cl)cc2)n2c1CCC2"
  growth: "21.9% (inactive)"
- Compound: "CC1CC(C)S(=O)(=O)C1 (stereo not drawn)"
  growth: "91.3% (inactive)"
- Compound: "Cc1cccnc1NC1OC(=O)c2ccccc21 (stereo not drawn)"
  growth: "99.3% (inactive)"

Which measured growth belongs to CCOc1ccc2c(c1)c(C)cc(C)[n+]2CC , tested on MOLT-4 leukemia?
64.6% (inactive)

Request: O=C(Nc1ccccc1)c1ccco1
93.5% (inactive)

Request: CCC12OC(COc3ccccc3)CN1CCN2c1ccccc1 (stereo not drawn)
94.5% [100 µM] (inactive)

Request: O=C(CCl)Oc1ccc([N+](=O)[O-])cc1
105% (inactive)

Request: O=C(O)CCCCCNC(=O)OCc1ccccc1
110% (inactive)
